targetOfAssay: Histone deacetylase 1 (Homo sapiens)
Sequence (Q13547 whole entry): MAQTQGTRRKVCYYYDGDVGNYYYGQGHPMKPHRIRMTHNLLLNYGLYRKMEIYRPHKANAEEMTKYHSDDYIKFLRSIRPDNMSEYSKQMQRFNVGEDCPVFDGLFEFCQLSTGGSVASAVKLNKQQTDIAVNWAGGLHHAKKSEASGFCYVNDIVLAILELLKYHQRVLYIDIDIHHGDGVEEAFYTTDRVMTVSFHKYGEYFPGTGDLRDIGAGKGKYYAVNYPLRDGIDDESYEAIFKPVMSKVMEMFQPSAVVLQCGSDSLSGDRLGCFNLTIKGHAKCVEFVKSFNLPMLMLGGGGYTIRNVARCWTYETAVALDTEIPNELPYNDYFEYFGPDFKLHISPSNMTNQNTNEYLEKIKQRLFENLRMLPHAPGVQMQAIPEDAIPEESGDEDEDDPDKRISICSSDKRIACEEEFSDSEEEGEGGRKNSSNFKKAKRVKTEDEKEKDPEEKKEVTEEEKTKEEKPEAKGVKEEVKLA
testName: Inhibition of human recombinant HDAC1 using fluor de Lys as substrate by fluorometric analysis
pIC50: −log10 of the molar value.
propertyMeasured: pIC50

[1] O=C(NO)c1cnc(N2C[C@@H]3[C@H](C2)[C@H]3NCc2ccc3cc(F)ccc3n2)nc1
[2] O=C(NO)c1cnc(N2C[C@@H]3[C@H](C2)[C@H]3NCc2ccc(Cl)cc2)nc1
Query block: For 1 and 2 , which recorded pIC50 is lower? Label of pick, please.
Result block: 2
(2: 8.22, 1: 8.52)

---

targetOfAssay: Cytochrome P450 2C19 (Homo sapiens)
Sequence (P33261 whole entry): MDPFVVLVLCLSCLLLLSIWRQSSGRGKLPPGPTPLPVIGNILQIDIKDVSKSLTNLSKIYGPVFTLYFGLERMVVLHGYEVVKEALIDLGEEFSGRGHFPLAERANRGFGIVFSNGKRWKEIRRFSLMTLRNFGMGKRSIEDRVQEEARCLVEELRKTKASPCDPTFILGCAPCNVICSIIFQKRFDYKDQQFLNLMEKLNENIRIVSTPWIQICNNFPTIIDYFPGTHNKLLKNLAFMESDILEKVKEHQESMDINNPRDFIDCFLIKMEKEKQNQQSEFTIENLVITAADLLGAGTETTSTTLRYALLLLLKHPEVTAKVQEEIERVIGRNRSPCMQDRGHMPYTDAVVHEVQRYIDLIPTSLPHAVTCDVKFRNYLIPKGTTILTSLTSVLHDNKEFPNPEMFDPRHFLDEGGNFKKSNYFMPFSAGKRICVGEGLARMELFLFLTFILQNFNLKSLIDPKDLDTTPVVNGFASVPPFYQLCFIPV
Listed here: items and their measured IC50.

compound: O=C(NO)c1cnc(N2C[C@@H]3[C@H](C2)[C@H]3NCc2ccc3cc(F)ccc3n2)nc1 [NANATINOSTAT]
IC50: > 50 µM

Query block: What does the data say about its IC50? Entry: "O=C(NO)c1cnc(N2C[C@@H]3[C@H](C2)[C@H]3NCc2ccc3ccccc3c2)nc1"
Result block: > 50 µM
